# System: K4 kissing-loop RNA reporter;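 note: bound reporter read as fluorescence of individual clusters on recovered sequencing chips by microscopy, with normalized cluster intensities fitted with a binding model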
# Assay Info: apparent KD of K4 kissing-loop reporter; higher = weaker reporter binding
# Recorded Conditions: Eterna round: R107; input ligand: tryptophan 2.4 mM

| Chain | apparent KD of K4 kissing-loop reporter (µM) |
| --- | --- |
| GGAUAGGACAGAGGAUAUGGUAGCUAGGCAAGAAUAACUUGUCUAGCAUCCAUGAGGAGUGAUGUUCCAGAAGGCUGUCCUAUCG [FmnBX 5 - #SwitchBubble #StaticStem] | 0.165 |
| GCUAUGGUAGGAAGGAGCGCGGACGGUAUUUGUCGAGUGAUGUUCGAUUCUUUAAUUUGAACGCAGGUAGGUCGCCUACUAUAGC [Arginine B K4 30] | 0.221 |
| AGUGUUGUAUGACGGUUUGUCACUUAGGAUCAGGAUAUAUAAACAAAUAGAAGGGAUGGCGGAGUGAUGUUCCGCCGGCCGCCAU [FMN A Exl V9] | 0.0943 |
| AAGUGUUCUAGUGAUACCAGACAUUUCUAUUUUAUCUUUAUAGCUAAGUGAUGUUUAGCAGUCCCUUGGCAGCACUAUUUCACUA [JR_SSTheophyB_Sub017] | 0.147 |
| GGCAUCCAUGGACCUAGUGAUGUUAGGUACCGAGGACCGGUACGGCCGCCACUCGGCCAUGGAUGCCGCAAUCGGAAACGAUUGC | 0.345 |
| AAAAUAGAUCAGUGAUGUUGGUGUCUGGAUACCAGCGAUAAUAGUCGCCCUUGGCAGCCAUGGACGUACAAAAUAAGUACGUCCU [MatMod 20 - Jieux - Same State - Theophylline A] | 0.347 |
| UGUACCGAGUCAGGAUAUGGCGUCGAAAGACGAAUGCUAGUGAUGUUAGGGAUCUGCGAAAGCAGUCUAGAAGGGACUUGGUACU [FmnBS 26 G36+U68] | 0.525 |
| AACUCUCACUGGAGUGAUGUUCUGGAAAACCGAGGACCGGUACGGCCGCCACUCGGAAAUGAGAGAGUCCUACGAAAAGUAGGAC [Omei inspired 1] | 0.139 |
| UGACUGGAUGGAAGGAGCGCUAAACUCCUAGUGAUGUUAGGGAAACGAGACAAAGUCUCGAAGCAGGUAGGUCGCCAUCUAGUCU [FiskerMod 14 - Jieux - Same State - Arginine B] | 0.155 |
| GGAGUUACCUGGGAUACCAGUCGGAGUCCCAGAGCUCAGAGUGAUGUUCUGGGAUGUUUCGGCCCUUGGCAGCUCUGGGACUCCC [#2 Exclusion - Theophylline B Attempt #12 (HarryS)] | 0.466 |
| UGCUUUAUCAGAAGGAGCGCGUUAUUCAUAAUAAUAAUCAGUGAUGUUGAUAUAUGAUGAUUGCAGGUAGGUCGCUGAUAUAGCU [KL-XARG-B3] | 0.259 |
